Target: T1, cynomolgus transferrin receptor (TfR) ectodomain (ECD) (cynomolgus, UniProt Q5RDH6 121-760 (Pongo abelii entry), biotinylated where captured on streptavidin)
T1 construct: also called cyno TfR; cynoTfR; not shown: C-terminal cleavable His- and Avi-tags
T1 chain: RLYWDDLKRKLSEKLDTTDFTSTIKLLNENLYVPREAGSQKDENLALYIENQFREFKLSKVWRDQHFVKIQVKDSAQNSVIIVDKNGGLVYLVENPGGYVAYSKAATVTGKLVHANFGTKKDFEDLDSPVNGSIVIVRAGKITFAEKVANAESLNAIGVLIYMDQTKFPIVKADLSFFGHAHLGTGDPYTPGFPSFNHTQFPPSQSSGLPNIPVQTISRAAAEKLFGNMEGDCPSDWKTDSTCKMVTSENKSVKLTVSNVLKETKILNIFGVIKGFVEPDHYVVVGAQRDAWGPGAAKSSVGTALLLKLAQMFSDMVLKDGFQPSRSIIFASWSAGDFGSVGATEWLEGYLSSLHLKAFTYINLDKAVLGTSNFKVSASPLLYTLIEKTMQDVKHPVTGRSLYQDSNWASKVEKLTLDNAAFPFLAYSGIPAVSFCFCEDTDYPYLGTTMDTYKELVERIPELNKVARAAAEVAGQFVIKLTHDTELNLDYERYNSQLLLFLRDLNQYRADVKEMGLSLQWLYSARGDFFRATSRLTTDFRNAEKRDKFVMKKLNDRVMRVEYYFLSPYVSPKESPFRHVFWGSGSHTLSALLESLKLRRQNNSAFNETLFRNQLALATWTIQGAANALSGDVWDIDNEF
Assay: yeast surface display flow cytometry; yeast-displayed clone stained with 250 nM biotinylated cyno TfR, neutravidin-AF647; median fluorescence intensity
MEASURE_NAME: binding result

3.2-24 (designed binder, also called CH3C.3.2-24) modified Fc polypeptide displayed on yeast (c-Myc tagged): PCPAPELLGGPSVFLFPPKPKDTLMISRTPEVTCVVVDVSHEDPEVKFNWYVDGVEVHNAKTKPREEQYNSTYRVVSVLTVLHQDWLNGKEYKCKVSNKALPAPIEKTISKAKGQPREPQVYTLPPSRDELTKNQVSLTCLVKGFYPSDIAVEWESLGHVWVHTKTTPPVLDSDGSFFLYSKLTVPKSTWQQGWVFSCSVMHEALHNHYTQKSLSLSPGK :: binds
3.2-17 (designed binder, also called CH3C.3.2-17) modified Fc polypeptide displayed on yeast (c-Myc tagged): PCPAPELLGGPSVFLFPPKPKDTLMISRTPEVTCVVVDVSHEDPEVKFNWYVDGVEVHNAKTKPREEQYNSTYRVVSVLTVLHQDWLNGKEYKCKVSNKALPAPIEKTISKAKGQPREPQVYTLPPSRDELTKNQVSLTCLVKGFYPSDIAVEWESLGHVWVGTKTTPPVLDSDGSFFLYSKLTVPKSTWQQGWVFSCSVMHEALHNHYTQKSLSLSPGK :: binds
3.4-19 (designed binder, also called CH3C.3.4-19) modified Fc polypeptide displayed on yeast (c-Myc tagged): PCPAPELLGGPSVFLFPPKPKDTLMISRTPEVTCVVVDVSHEDPEVKFNWYVDGVEVHNAKTKPREEQYNSTYRVVSVLTVLHQDWLNGKEYKCKVSNKALPAPIEKTISKAKGQPREPQVYTLPPSRDELTKNQVSLTCLVKGFYPSDIAVEWESWGHVWSTYKTTPPVLDSDGSFFLYSKLTVPKSNWQQGYVFSCSVMHEALHNHYTQKSLSLSPGK :: binds
